Test system: TNFα-FL/Gaussia Luciferase
Procedure Summary: Dox Induced TNFα-FL-Gluc Assay
Format: cell-based
Cond: 24 hr Dox induction; 293FRT/TO cells; read-out: 24 hr Dox Inducible TNFaFLGluc 293FRT/TO: Mean IC50
Quantity Name: IC50 (nM)

mol=CS(=O)(=O)N1CCC(Oc2ccc(N3CCC[C@@H]3c3csc(NC(=O)c4cccn4Cc4ccnc(F)c4)n3)cc2)CC1 quantity_name=IC50 scale_unit=nM result=495

P: Cc1cnn(C(C)C)c1/C=C/c1csc(NC(=O)c2cccn2Cc2ccnc(F)c2)n1
Q: CC(C)Oc1ccc(N2CCC[C@@H]2c2csc(NC(=O)c3cccn3Cc3ccncc3)n2)cc1
R: CN(C)S(=O)(=O)N1CC(Oc2ccc(N3CCC[C@@H]3c3csc(NC(=O)c4cccn4Cc4ccnc(F)c4)n3)cc2)C1
Sort by IC50, descending. Show the ranking through the labels, in the order asked for. P, R, Q
(P: 1670 nM, R: 579 nM, Q: 87 nM)

The reported measurements were obtained from patent US20230286973A1.
